Consider the following compounds; for each one, report its Ratio IC50.
- System: CHO
- method.notes: Selectivity ratio of IC50 for human OX1R Ile408Val mutant expressed in CHO cells to IC50 for human OX2R expressed in CHO cells
- Format: cell-based

Give Ratio IC50 for each listed item.
1. COc1ccc(CNC(=O)c2cc(-c3cncc(C)c3)ncc2N2CCOCC2)nc1OC
2. COc1ccc(CNC(=O)c2cc(-c3cncc(C)c3)ncc2-c2cnn(C)c2)nc1OC
3. COc1ccc(CNC(=O)c2cc(-c3cncc(C)c3)nnc2-c2ccccc2)nc1OC
4. COc1ccc(CNC(=O)c2cc(-c3cncc(C)c3)ncc2N2CCC2)nc1OC
5. COc1ccc(CNC(=O)c2cc(-c3cncc(C)c3)ncc2N2CCCC2)nc1OC

stdout:
1. > 3
2. > 60
3. > 59
4. > 120
5. > 270

stdin: Consider the compound COc1ccc(CNC(=O)c2cc(-c3cncc(C)c3)ncc2-c2cnccn2)nc1OC and give its recorded Ratio IC50.
stdout: > 92
